# melting point per record follows
result type: melting point

compound=O=C1c2ccccc2S(=O)(=O)N1COc1ccc([N+](=O)[O-])cc1 reported_result="162 to 164 °C"
compound=O=C(O)CNc1cc(Cl)ccc1C(=O)O reported_result="231 °C"
compound=O=c1[nH]c(NCCCN(Cc2ccccc2)c2ccccn2)ncc1Cc1ccc(Cl)cc1 reported_result="80 to 86 °C"
compound=C(=Cc1ccc(OCCCCc2nnn[nH]2)cc1)c1ccncc1 reported_result="158 to 159 °C"
compound=CC(=O)NCC(=NNC(N)=S)c1ccccc1 reported_result="208 to 211 °C"
compound="COc1nnc2n1C=Cc1ccccc1C2C (stereo not given)" reported_result="101 to 102 °C"
compound=CCCCCCCCCCCCc1cc2cc(C(=O)OCC)ccc2[nH]1 reported_result="77 to 79 °C"
compound=CCOC(=O)COC1CCN(C(=O)[C@H](C)OCc2ccc(C(N)=NO)cc2)CC1 reported_result="137 to 138 °C"
compound=COC(=O)CCCc1cc2cc(Cl)ccc2n1S(=O)(=O)c1ccc2c(c1)CCO2 reported_result="132 to 137 °C"
compound=COc1cc(OC)nc(NC(=O)NS(=O)(=O)c2ccccc2C=O)n1 reported_result="180 °C"
